# target.or.test.system: IRAK4 (Homo sapiens, UniProt Q9NWZ3)
# Sequence (Q9NWZ3 whole entry): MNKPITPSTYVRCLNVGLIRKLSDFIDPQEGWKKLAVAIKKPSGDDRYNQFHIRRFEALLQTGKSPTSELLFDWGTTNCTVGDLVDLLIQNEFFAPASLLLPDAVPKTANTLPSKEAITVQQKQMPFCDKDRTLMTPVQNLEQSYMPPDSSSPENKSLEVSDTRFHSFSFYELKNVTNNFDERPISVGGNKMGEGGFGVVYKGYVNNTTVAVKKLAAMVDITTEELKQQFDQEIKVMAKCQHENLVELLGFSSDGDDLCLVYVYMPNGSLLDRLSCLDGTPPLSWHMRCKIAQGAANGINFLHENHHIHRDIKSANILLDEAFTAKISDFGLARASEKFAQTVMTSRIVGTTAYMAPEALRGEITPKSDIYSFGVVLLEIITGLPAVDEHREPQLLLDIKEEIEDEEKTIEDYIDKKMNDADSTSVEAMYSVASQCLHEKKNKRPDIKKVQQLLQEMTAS
# assay.text: OCI-LY-10 degradation assay (western blot, % IRAK4 degraded after 4 hours)
# Assay type: cell-based
# Set-up: endogenous in cells; host or cells: OCI-LY10
# condition.summary: OCI-LY10 cells, 4 hours, 0.01 uM compound
metric.name: OCI-LY10 % IRAK4 Degradation (0.01 uM)

The cases that follow already have their OCI-LY10 % IRAK4 Degradation (0.01 uM) on record.
O=C1CCC(N2C(=O)c3cccc(N4CCN(CCOCCOCCNCc5ccc(-n6cc(NC(=O)c7coc(-c8ccnc(NCC9CC9)c8)n7)c(C(F)F)n6)cc5)CC4)c3C2=O)C(=O)N1 (stereo not shown) | C (<20% degradation)
NC(=O)c1nn(-c2ccc(C(=O)NCCOCCOCCOCCCc3cccc4c3CN(C3CCC(=O)NC3=O)C4=O)cc2)cc1NC(=O)c1coc(-c2ccnc(NCC3CC3)c2)n1 (stereo not shown) | C (<20% degradation)
O=C1CCC(N2Cc3cc(N4CCN(CCOCCOCCNCc5ccc(-n6cc(NC(=O)c7coc(-c8ccnc(NCC9CC9)c8)n7)c(C(F)F)n6)cc5)CC4)ccc3C2=O)C(=O)N1 (stereo not shown) | B (>20-50% degradation)
O=C1CCC(N2Cc3cc(NC4CCN(CCOCCOCCNCc5ccc(-n6cc(NC(=O)c7coc(-c8ccnc(NCC9CC9)c8)n7)c(C(F)F)n6)cc5)CC4)ccc3C2=O)C(=O)N1 (stereo not shown) | C (<20% degradation)
CC[C@@H]1[C@H](F)C(=O)N[C@@H]1COc1ncc(C#Cc2ccc(OCCOCCOCCOCCNc3cccc4c3C(=O)N(C3CCC(=O)NC3=O)C4=O)cc2)c2cc(C(N)=O)c(OC)cc12 (stereo partly shown) | B (>20-50% degradation)

Sample NC(=O)c1nn(CCNCCOCCOCCNc2cccc3c2C(=O)N(C2CCC(=O)NC2=O)C3=O)cc1NC(=O)c1coc(-c2ccnc(NCC3CC3)c2)n1 (stereo not shown) — what was its OCI-LY10 % IRAK4 Degradation (0.01 uM)?
B (>20-50% degradation)

Can you look up the measured OCI-LY10 % IRAK4 Degradation (0.01 uM) of O=C1CCC(N2C(=O)c3ccc(CCCOCCNCc4ccc(-n5cc(NC(=O)c6coc(-c7ccncc7)n6)c(C(F)F)n5)cc4)cc3C2=O)C(=O)N1 (stereo not shown) for me?
C (<20% degradation)

Which OCI-LY10 % IRAK4 Degradation (0.01 uM) is reported for this molecule? O=C1CCC(N2C(=O)c3cccc(NCCOCCN4CCO[C@H](CNC(=O)c5ccc(-n6cc(NC(=O)c7coc(-c8ccnc(NCC9CC9)c8)n7)c(C(F)F)n6)cc5)C4)c3C2=O)C(=O)N1 (stereo partly shown)
C (<20% degradation)
